TARGET DESC: Myc proto-oncogene protein (Homo sapiens)
Sequence (P01106 whole entry): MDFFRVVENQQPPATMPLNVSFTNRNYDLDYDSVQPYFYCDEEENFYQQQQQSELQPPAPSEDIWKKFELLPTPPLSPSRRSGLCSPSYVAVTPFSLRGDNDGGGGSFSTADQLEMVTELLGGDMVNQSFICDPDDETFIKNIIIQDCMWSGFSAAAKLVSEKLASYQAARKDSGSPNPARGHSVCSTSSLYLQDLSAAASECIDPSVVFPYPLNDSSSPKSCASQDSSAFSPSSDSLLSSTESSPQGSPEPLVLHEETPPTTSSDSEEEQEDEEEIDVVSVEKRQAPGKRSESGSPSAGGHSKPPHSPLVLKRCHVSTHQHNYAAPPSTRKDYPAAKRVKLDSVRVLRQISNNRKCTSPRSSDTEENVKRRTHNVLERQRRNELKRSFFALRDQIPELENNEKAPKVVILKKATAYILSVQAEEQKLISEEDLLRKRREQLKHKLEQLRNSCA
METHOD NOTES: Inhibition of c-MYC in human HL60 cells by chemiluminescence assay
pIC50: −log10 of the molar value.
VALUE TYPE: pIC50

- CC(C)c1ccc(/C=C2\SC(=S)N(CN3CCCCC3)C2=O)cc1: 4.54

====

TARGET DESC: c-Myc/Max (Homo sapiens, UniProt P01106+P61244)
Sequence (P61244 whole entry, one chain of several): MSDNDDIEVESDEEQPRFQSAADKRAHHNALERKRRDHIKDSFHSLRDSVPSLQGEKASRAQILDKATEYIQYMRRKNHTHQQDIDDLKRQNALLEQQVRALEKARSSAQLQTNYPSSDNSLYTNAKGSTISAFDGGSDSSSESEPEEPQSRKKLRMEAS
METHOD NOTES: Inhibition of c-Myc/Max (unknown origin) DNA-binding activity preincubated for 1 hr followed by DNA addition measured after 15 mins by electrophoretic mobility shift assay
Type: protein-complex assay
pIC50: −log10 of the molar value.
VALUE TYPE: pIC50

• CNC(=O)c1cc2c(cc1C(=O)NC[C@H](NS(=O)(=O)c1c(Cl)sc(Cl)c1Br)C(=O)OC(C)(C)C)CN(C(=O)CCC1CCN(C(=O)OC(C)(C)C)CC1)C2 = 4.30
